Recorded values, source patent US20120034231A1.

- STUDY TARGET: T1, cynomolgus IL12Rβ1 (cynomolgus, UniProt A0A2K5VWV1 24-662)
- T1 construct: whole, on cells; also called cyno IL12Rβ1; Cyno IL-12Rβ1
- MEASUREMENT NOTES: FACS, 1 µg/ml Fab, HEK cells expressing cyno IL12Rβ1
Could you please report measured MFI (mean fluorescent intensity) for the items listed next?
Write the value as a bare number.

Indicate the recorded MFI (mean fluorescent intensity) value for this binder: MOR05286 Fab (Fab, V domains shown, also called MOR5286) VH: QVQLKESGPALVKPTQTLTLTCTFSGFSLSTSGMGVSWIRQPPGKALEWLALIDWTDDKYYSTSLKTRLTISKDTSKNQVVLTMTNMDPVDTATYYCARTVGKGLYRVDNWGQGTLVTVSS VL: DIELTQPPSVSVAPGQTARISCSGDNLGSKFAYWYQQKPGQAPVLVIYDDSKRPSGIPERFSGSNSGNTATLTISGTQAEDEADYYCQSWDSSSGNDVFGGGTKLTVLG
368

Indicate the recorded MFI (mean fluorescent intensity) value for this binder: MOR05271 Fab (Fab, V domains shown) VH: QVQLKESGPALVKPTQTLTLTCTFSGFSLSTSTMGVSWIRQPPGKALEWLAWIYWDDDKDYSTSLKSRLTISKDTSKNQVVLTMTNMDPVDTATYYCARANPDLGYFDYWGQGTLVTVSS VL: DIALTQPASVSGSPGQSITISCTGTSSDLGESNYVSWYQQHPGKAPKVMIYDVNKRPSGVSNRFSGSKSGNTASLTISGLQAEDEADYYCGSYDEEDNVFGGGTKLTVLG
2

Indicate the recorded MFI (mean fluorescent intensity) value for this binder: MOR05281 Fab (Fab, V domains shown) VH: QVQLKESGPALVKPTQTLTLTCTFSGFSLSTRGVGVSWIRQPPGKALEWLALIYWDEDKYYSTSLKTRLTISKDTSKNQVVLTMTNMDPVDTATYYCARYQSGYYYNNDGWGVDIWGQGTLVTVSS VL: DIQMTQSPSSLSASVGDRVTITCRASQSISSWLNWYQQKPGKAPKLLIYAASSLQSGVPSRFSGSGSGTDFTLTISSLQPEDFATYYCQQYYAFPHTFGQGTKVEIKR
2

Indicate the recorded MFI (mean fluorescent intensity) value for this binder: MOR05278 Fab (Fab, V domains shown) VH: QVQLVESGGGLVQPGGSLRLSCAASGFTFSSYGMSWVRQAPGKGLEWVSYIEPKLFWYATFYAASVKGRFTISRDNSKNTLYLQMNSLRAEDTAVYYCARNDFMEPAYFALWGQGTLVTVSS VL: DIELTQPPSVSVAPGQTARISCSGDNLGSYYAYWYQQKPGQAPVGVIYDDSERPSGIPERFSGSNSGNTATLTISGTQAEDEADYYCSSYTYSKNNVFGGGTKLTVLG
3
